- assay-overview: Microsomal stability in rat liver microsomes assessed as half life
- Type: ADME, Microsome
readout: half-life (min)

Reference set (4 entries):
smiles-input	unit-tag	half-life
Cc1cc(C(=O)Nc2ccc(Cl)cc2)ccc1N(CC(=O)N1CCOCC1)C(=O)Nc1ccc(Cl)cc1	min	45.9
Cc1cc(C(=O)Nc2ccc(Cl)cc2)ccc1N(CCN1CCOCC1=O)C(=O)Nc1ccc(Cl)cc1	min	10.7
Cc1cc(C(=O)Nc2ccc(C(F)(F)F)nc2)ccc1N(CCN1CCOCC1)C(=O)Nc1ccc(Cl)cc1	min	5.4
Cc1cc(C(=O)Nc2ccc(Cl)cc2)ccc1N(CCN1CCCC1=O)C(=O)Nc1ccc(Cl)cc1	min	4.5

A = Cc1cc(C(=O)Nc2ccc(Cl)cc2)ccc1N(CCN1CCCC1)C(=O)Nc1ccc(Cl)cc1
B = Cc1cc(C(=O)Nc2ccc(F)cn2)ccc1N(CCN1CCCC1)C(=O)Nc1ccc(Cl)cc1
C = Cc1cc(C(=O)Nc2ccc(F)cn2)ccc1N(CCN1CCCC1=O)C(=O)Nc1ccc(Cl)cc1
Task: Output the entries ranked by half-life from maximum down to minimum. Present the labels in the sequence the task asks for.
Output: A, B, C
(A: 27.3 min, B: 16 min, C: 3.1 min)

###

- measurement-target: Bifunctional epoxide hydrolase 2 (Homo sapiens)
- Sequence (whole entry): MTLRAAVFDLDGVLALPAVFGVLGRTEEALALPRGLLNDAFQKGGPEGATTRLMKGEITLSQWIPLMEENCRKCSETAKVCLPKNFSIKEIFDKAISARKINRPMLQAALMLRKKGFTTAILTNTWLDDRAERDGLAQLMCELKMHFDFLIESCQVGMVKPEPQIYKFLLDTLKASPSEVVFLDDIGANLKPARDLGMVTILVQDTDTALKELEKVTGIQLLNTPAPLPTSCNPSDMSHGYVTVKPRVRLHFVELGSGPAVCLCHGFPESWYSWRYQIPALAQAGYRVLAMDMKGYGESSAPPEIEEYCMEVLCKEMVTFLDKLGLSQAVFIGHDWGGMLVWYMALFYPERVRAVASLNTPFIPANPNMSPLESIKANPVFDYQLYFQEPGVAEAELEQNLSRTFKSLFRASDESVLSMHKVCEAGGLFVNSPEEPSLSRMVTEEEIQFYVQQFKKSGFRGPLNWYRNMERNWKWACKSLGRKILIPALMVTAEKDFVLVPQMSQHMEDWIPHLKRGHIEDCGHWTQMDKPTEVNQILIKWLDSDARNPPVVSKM
- assay-overview: Inhibition of sEH (unknown origin) at 100 nM relative to control
readout: inhibition (%)

smiles-input	unit-tag	inhibition
Cc1cc(C(=O)Nc2ccc3c(c2)OCO3)ccc1N(CCN1CCCC1=O)C(=O)Nc1ccc(Cl)cc1	%	92.7
Cc1cc(C(=O)Nc2ccc(Cl)cc2)ccc1N(CC(C)C)C(=O)Nc1ccc(Cl)cc1	%	69.4
Cc1cc(C(N)=O)ccc1N(CCN1CCOCC1)C(=O)Nc1ccc(Cl)cc1	%	75.9
Cc1cc(C(=O)Nc2ccccn2)ccc1N(CCN1CCOCC1)C(=O)Nc1ccc(Cl)cc1	%	85.8
Cc1cc(C(=O)Nc2ccc(Cl)cc2)ccc1N(CC(=O)N1CCOCC1)C(=O)Nc1ccc(Cl)cc1	%	95.7
Cc1cc(C(=O)Nc2ccc(F)cn2)ccc1N(CCN1CCOCC1)C(=O)Nc1ccc(Cl)cc1	%	97.8

###

- assay-overview: Microsomal stability in human liver microsomes assessed as half life
- Assay type: ADME, Microsome
readout: half-life (min)

smiles-input	half-life / min
Cc1cc(C(=O)Nc2ccc3c(c2)OCO3)ccc1N(CCN1CCOCC1)C(=O)Nc1ccc(Cl)cc1	6.9

P = Cc1cc(C(=O)Nc2ccc3c(c2)OCO3)ccc1N(CCN1CCCC1=O)C(=O)Nc1ccc(Cl)cc1
Q = Cc1cc(C(=O)Nc2ccc(C(F)(F)F)nc2)ccc1N(CCN1CCOCC1)C(=O)Nc1ccc(Cl)cc1
R = Cc1cc(C(=O)Nc2ccc(F)cn2)ccc1N(CCN1CCCC1)C(=O)Nc1ccc(Cl)cc1
Task: Output the entries ranked by half-life from maximum down to minimum. Present the labels in the sequence the task asks for.
Output: R, Q, P
